Molecular target: HIV-1 integrase (Human immunodeficiency virus type 1 group M subtype B, UniProt P04585)
Construct: Expression and purification of the recombinant HIV-1 integrase in Escherichia coli; made in house; host or cells: Escherichia coli
Experiment: Integrase catalytic assay, 3′-processing (3′-P), 21 bp duplex substrate
Assay type: biochemical
Conditions: read-out: inhibition activity, 3′-P, 21 bp substrate, Mg2+; drug concentration of 333 μM
Exercise: state measured inhibition at 333 µM for each of the compounds provided.

Task: Which inhibition at 333 µM value is on record for CC(C)c1ccccc(=O)c1O [NSC 18805, α-thujaplicin] ?
Result: 5 to 20%

Task: And the next one, O=c1cccccc1O [NSC 89303, tropolone] ?
Result: < 5%

Task: And the next one, CC(C)=CCc1ccc(=O)c(O)cc1C(C)C [NSC 43339, nootkatin] ?
Result: 5 to 20%

Task: And the next one, CC(C)c1cccc(=O)c(O)c1 [NSC 18804, β-thujaplicin] ?
Result: 20 to 40%

Task: And the next one, CC(C)c1ccc(O)c(=O)cc1 [NSC 43338, γ-thujaplicin] ?
Result: < 5%

###

Molecular target: HIV-1 integrase (Human immunodeficiency virus type 1 group M subtype B)
Construct: Expression and purification of the recombinant HIV-1 integrase in Escherichia coli; made in house; host or cells: Escherichia coli
Assay: Integrase catalytic assay, 3′-processing (3′-P), 21 bp duplex substrate
Format: biochemical
Details: read-out: inhibition activity, 3′-P, 21 bp substrate, Mn2+; drug concentration of 333 μM
value.type: inhibition at 333 µM

Task: Which inhibition at 333 µM value is on record for CC(C)c1ccccc(=O)c1O [NSC 18805, α-thujaplicin] ?
Result: 5 to 20%

Task: And the next one, O=c1cccccc1O [NSC 89303, tropolone] ?
Result: 5 to 20%

Task: And the next one, CC(C)c1cccc(=O)c(O)c1 [NSC 18804, β-thujaplicin] ?
Result: 20 to 40%

Task: And the next one, CC(C)=CCc1ccc(=O)c(O)cc1C(C)C [NSC 43339, nootkatin] ?
Result: 5 to 20%

Task: And the next one, CC(C)c1ccc(O)c(=O)cc1 [NSC 43338, γ-thujaplicin] ?
Result: < 5%

###

Target: HIV-1 integrase (Human immunodeficiency virus type 1 group M subtype B)
Construct: Expression and purification of the recombinant HIV-1 integrase in Escherichia coli; made in house; host or cells: Escherichia coli
Assay: Integrase catalytic assay, strand transfer (ST), 21 bp duplex substrate
Type: biochemical
Details: In vitro IC50 21 bp substrate ST, Mg2+
Procedure: Recombinant HIV integrase and oligonucleotide substrates. Expression and purification of the recombinant HIV-1 integrase in Escherichia coli were performed according to (Leh et al., 2000; Marchand et al., 2001) with addition of 10% glycerol to all buffers. […] Integrase catalytic assays. […] Gels were dried and reaction products were visualized and quantitated with a Molecular Dynamics PhosphorImager (Sunnyvale, Calif.). […]
Exercise: state measured IC50 for each of the compounds provided.

Task: Checklist item: IC50 tested on HIV-1 integrase (Human immunodeficiency virus type 1 group M subtype B), entry C=C(C)C1CCc2c(c(C)cc(O)c(=O)c2O)C1 (stereo not shown) , value?
Result: 71.1 µM

Task: And the next one, CC(C)=CCc1ccc(=O)c(O)cc1C(C)C ?
Result: > 333 µM

Task: And the next one, O=c1cccccc1O ?
Result: > 333 µM

Task: And the next one, CC(C)c1ccc(O)c(=O)c(O)c1 ?
Result: 21.6 µM

Task: And the next one, CC(C)c1cccc(=O)c(O)c1 ?
Result: > 333 µM

Task: And the next one, CC(C)c1ccc(O)c(=O)cc1 ?
Result: > 333 µM

Task: And the next one, CC(C)c1ccccc(=O)c1O ?
Result: > 333 µM

###

Biological target: HIV-1 integrase (Human immunodeficiency virus type 1 group M subtype B)
Construct: Expression and purification of the recombinant HIV-1 integrase in Escherichia coli; made in house; host or cells: Escherichia coli
Assay: Integrase catalytic assay, strand transfer (ST), 21 bp duplex substrate
Type: biochemical
Conditions: read-out: inhibition activity, ST, 21 bp substrate
Exercise: state measured inhibition at 333 µM for each of the compounds provided.

Task: Which inhibition at 333 µM value is on record for CC(C)c1ccc(O)c(=O)cc1 [NSC 43338, γ-thujaplicin] ?
Result: < 5%

Task: And the next one, CC(C)=CCc1ccc(=O)c(O)cc1C(C)C [NSC 43339, nootkatin] ?
Result: 20 to 40%

Task: And the next one, CC(C)c1ccccc(=O)c1O [NSC 18805, α-thujaplicin] ?
Result: < 5%

Task: And the next one, CC(C)c1cccc(=O)c(O)c1 [NSC 18804, β-thujaplicin] ?
Result: 5 to 20%

Task: And the next one, O=c1cccccc1O [NSC 89303, tropolone] ?
Result: 20 to 40%

###

Biological target: HIV-1 integrase (Human immunodeficiency virus type 1 group M subtype B, UniProt P04585)
Construct: Expression and purification of the recombinant HIV-1 integrase in Escherichia coli; made in house; host or cells: Escherichia coli
Assay: Disintegration assay with Y-oligomer substrate
Type: biochemical
Conditions: In vitro IC50 Disintegration, Mn2+
Procedure: Recombinant HIV integrase and oligonucleotide substrates. Expression and purification of the recombinant HIV-1 integrase in Escherichia coli were performed according to (Leh et al., 2000; Marchand et al., 2001) with addition of 10% glycerol to all buffers. […] Integrase catalytic assays. […] Gels were dried and reaction products were visualized and quantitated with a Molecular Dynamics PhosphorImager (Sunnyvale, Calif.). […]
pIC50: −log10 of the molar value.
Exercise: state measured pIC50 for each of the compounds provided.

Task: Which pIC50 value is on record for CC(C)c1ccccc(=O)c1O ?
Result: < 3.48

Task: And the next one, CC(C)c1cccc(=O)c(O)c1 ?
Result: < 3.48

Task: And the next one, CC(C)=CCc1ccc(=O)c(O)cc1C(C)C ?
Result: < 3.48

Task: And the next one, CC(C)c1ccc(O)c(=O)cc1 ?
Result: < 3.48

Task: And the next one, C=C(C)C1CCc2c(c(C)cc(O)c(=O)c2O)C1 (stereo not shown) ?
Result: 4.01

Task: And the next one, O=c1cccccc1O ?
Result: < 3.48

Task: And the next one, CC(C)c1ccc(O)c(=O)c(O)c1 ?
Result: 4.62

###

Target: HIV-1 integrase (Human immunodeficiency virus type 1 group M subtype B, UniProt P04585)
Construct: Expression and purification of the recombinant HIV-1 integrase in Escherichia coli; made in house; host or cells: Escherichia coli
Assay: Disintegration assay with Y-oligomer substrate
Assay type: biochemical
Conditions: read-out: inhibition activity, disintegration
Exercise: state measured inhibition at 333 µM for each of the molecules provided.

Task: Checklist item: inhibition at 333 µM tested on HIV-1 integrase (Human immunodeficiency virus type 1 group M subtype B, UniProt P04585), entry C=C(C)C1CCc2c(c(C)cc(O)c(=O)c2O)C1 (stereo not shown) [NSC 310618, manicol] , value?
Result: 5 to 20%

Task: And the next one, O=c1cccccc1O [NSC 89303, tropolone] ?
Result: < 5%

Task: And the next one, CC(C)c1cccc(=O)c(O)c1 [NSC 18804, β-thujaplicin] ?
Result: < 5%

Task: And the next one, CC(C)c1ccc(O)c(=O)cc1 [NSC 43338, γ-thujaplicin] ?
Result: < 5%

Task: And the next one, CC(C)c1ccc(O)c(=O)c(O)c1 [NSC 18806, β-thujaplicinol] ?
Result: 5 to 20%

Task: And the next one, CC(C)c1ccccc(=O)c1O [NSC 18805, α-thujaplicin] ?
Result: < 5%

Task: And the next one, CC(C)=CCc1ccc(=O)c(O)cc1C(C)C [NSC 43339, nootkatin] ?
Result: < 5%

###

Target: HIV-1 integrase (Human immunodeficiency virus type 1 group M subtype B)
Construct: Expression and purification of the recombinant HIV-1 integrase in Escherichia coli; made in house; host or cells: Escherichia coli
Experiment: Integrase catalytic assay, strand transfer (ST), 21 bp duplex substrate
Format: biochemical
Settings: In vitro IC50 21 bp substrate ST, Mn2+
Exercise: state measured IC50 for each of the compounds provided.

Task: Which IC50 value is on record for CC(C)c1ccccc(=O)c1O ?
Result: > 333 µM

Task: And the next one, C=C(C)C1CCc2c(c(C)cc(O)c(=O)c2O)C1 (stereo not shown) ?
Result: 11.7 µM

Task: And the next one, CC(C)c1cccc(=O)c(O)c1 ?
Result: > 333 µM

Task: And the next one, CC(C)c1ccc(O)c(=O)c(O)c1 ?
Result: 4.8 µM

Task: And the next one, O=c1cccccc1O ?
Result: > 333 µM

Task: And the next one, CC(C)=CCc1ccc(=O)c(O)cc1C(C)C ?
Result: > 333 µM

Task: And the next one, CC(C)c1ccc(O)c(=O)cc1 ?
Result: > 333 µM
